- Tested on: HCVcc (Jc1/JFH genotype 2a)
- method: HCVcc pseudo-plaque reduction assay (IPMA) in Huh-7.5 cells
- stated-conditions: HCV (Huh-7.5 cells)
Assign labels as follows, please: True for SI (CC50/IC50) below 20; False for SI (CC50/IC50) equal to or exceeding 20.

compound	cat
CC(=O)OC[C@H]1O[C@@H](Sc2ccc(NC(=O)CCC(=O)OC[C@H]3O[C@@H](n4ccc(=O)[nH]c4=O)[C@H](O[Si](C)(C)C(C)(C)C)[C@@H]3O[Si](C)(C)C(C)(C)C)cc2)[C@H](OC(C)=O)[C@@H](OC(C)=O)[C@@H]1OC(C)=O	True
CC(C)OC(=O)[C@H](C)N[P@](=O)(OC[C@H]1O[C@@H](n2ccc(=O)[nH]c2=O)[C@](C)(F)[C@@H]1O)Oc1ccccc1 [SOFOSBUVIR, sofosbuvir, reference compound]	False
CC(=O)OC[C@H]1O[C@@H](Sc2ccc(NC(=O)[C@H]3O[C@@H](n4ccc(=O)[nH]c4=O)[C@H](O[Si](C)(C)C(C)(C)C)[C@@H]3O[Si](C)(C)C(C)(C)C)cc2)[C@H](OC(C)=O)[C@@H](OC(C)=O)[C@H]1OC(C)=O	True
CC(=O)OC[C@H]1O[C@@H](Sc2ccc(NC(=O)CCC(=O)OC[C@H]3O[C@@H](n4ccc(=O)[nH]c4=O)[C@H](O[Si](C)(C)C(C)(C)C)[C@@H]3O[Si](C)(C)C(C)(C)C)cc2)[C@H](OC(C)=O)[C@@H](OC(C)=O)[C@H]1OC(C)=O	False

---

- method: in vitro
- stated-conditions: human
We begin with a simple list: items and their reported CC50.
observation-type: CC50 (µM)

compound	observation-type	units-text	reported-value
CC(=O)OC[C@H]1O[C@@H](Sc2ccc(NC(=O)[C@H]3O[C@@H](n4ccc(=O)[nH]c4=O)[C@H](O[Si](C)(C)C(C)(C)C)[C@@H]3O[Si](C)(C)C(C)(C)C)cc2)[C@H](OC(C)=O)[C@@H](OC(C)=O)[C@@H]1OC(C)=O [Compound 12]	CC50	µM	130
CC(=O)OC[C@H]1O[C@@H](Sc2ccc(NC(=O)CCC(=O)OC[C@H]3O[C@@H](n4ccc(=O)[nH]c4=O)[C@H](O[Si](C)(C)C(C)(C)C)[C@@H]3O[Si](C)(C)C(C)(C)C)cc2)[C@H](OC(C)=O)[C@@H](OC(C)=O)[C@H]1OC(C)=O [Compound 9]	CC50	µM	133

---

- method: MTT cell viability assay in non-infected Huh-7.5 cells
- stated-conditions: human
observation-type: CC50 (µM)

1. CC(=O)OC[C@H]1O[C@@H](Sc2ccc(NC(=O)[C@H]3O[C@@H](n4ccc(=O)[nH]c4=O)[C@H](O[Si](C)(C)C(C)(C)C)[C@@H]3O[Si](C)(C)C(C)(C)C)cc2)[C@H](OC(C)=O)[C@@H](OC(C)=O)[C@@H]1OC(C)=O 270
2. CC(=O)OC[C@H]1O[C@@H](Sc2ccc(NC(=O)[C@H]3O[C@@H](n4ccc(=O)[nH]c4=O)[C@H](O[Si](C)(C)C(C)(C)C)[C@@H]3O[Si](C)(C)C(C)(C)C)cc2)[C@H](OC(C)=O)[C@@H](OC(C)=O)[C@H]1OC(C)=O 14
3. O=C(Nc1ccc(S[C@@H]2O[C@H](CO)[C@H](O)[C@H](O)[C@H]2O)cc1)[C@H]1O[C@@H](n2ccc(=O)[nH]c2=O)[C@H](O)[C@@H]1O 460
4. CC(=O)OC[C@H]1O[C@@H](Sc2ccc(NC(=O)[C@H]3O[C@@H](n4ccc(=O)[nH]c4=O)[C@@H]4OC(C)(C)O[C@@H]43)cc2)[C@H](OC(C)=O)[C@@H](OC(C)=O)[C@@H]1OC(C)=O 258
5. CC(=O)OC[C@H]1O[C@@H](Sc2ccc(NC(=O)CCC(=O)OC[C@H]3O[C@@H](n4ccc(=O)[nH]c4=O)[C@H](O[Si](C)(C)C(C)(C)C)[C@@H]3O[Si](C)(C)C(C)(C)C)cc2)[C@H](OC(C)=O)[C@@H](OC(C)=O)[C@@H]1OC(C)=O 16
6. CC(=O)OC[C@H]1O[C@@H](Sc2ccc(NC(=O)[C@H]3O[C@@H](n4ccc(=O)[nH]c4=O)[C@@H]4OC(C)(C)O[C@@H]43)cc2)[C@H](OC(C)=O)[C@@H](OC(C)=O)[C@H]1OC(C)=O 272
7. CC(=O)OC[C@H]1O[C@@H](Sc2ccc(NC(=O)CCC(=O)OC[C@H]3O[C@@H](n4ccc(=O)[nH]c4=O)[C@H](O[Si](C)(C)C(C)(C)C)[C@@H]3O[Si](C)(C)C(C)(C)C)cc2)[C@H](OC(C)=O)[C@@H](OC(C)=O)[C@H]1OC(C)=O 257
8. CC(=O)OC[C@H]1O[C@@H](Sc2ccc(NC(=O)CCC(=O)OC[C@H]3O[C@@H](n4ccc(=O)[nH]c4=O)[C@@H]4OC(C)(C)O[C@@H]43)cc2)[C@H](OC(C)=O)[C@@H](OC(C)=O)[C@@H]1OC(C)=O 399

---

- Test system: HCVcc (Jc1/JFH genotype 2a)
- method: HCVcc pseudo-plaque reduction assay (IPMA) in Huh-7.5 cells
- stated-conditions: HCV (Huh-7.5 cells)
We begin with a simple list: items and their reported SI (CC50/IC50).
observation-type: SI (CC50/IC50)

1. CC(=O)OC[C@H]1O[C@@H](Sc2ccc(NC(=O)CCC(=O)OC[C@H]3O[C@@H](n4ccc(=O)[nH]c4=O)[C@@H]4OC(C)(C)O[C@@H]43)cc2)[C@H](OC(C)=O)[C@@H](OC(C)=O)[C@@H]1OC(C)=O 1.4
2. CC(=O)OC[C@H]1O[C@@H](Sc2ccc(NC(=O)[C@H]3O[C@@H](n4ccc(=O)[nH]c4=O)[C@@H]4OC(C)(C)O[C@@H]43)cc2)[C@H](OC(C)=O)[C@@H](OC(C)=O)[C@@H]1OC(C)=O 1.7
3. CC(=O)OC[C@H]1O[C@@H](Sc2ccc(NC(=O)[C@H]3O[C@@H](n4ccc(=O)[nH]c4=O)[C@@H]4OC(C)(C)O[C@@H]43)cc2)[C@H](OC(C)=O)[C@@H](OC(C)=O)[C@H]1OC(C)=O 1.6
4. O=C(Nc1ccc(S[C@@H]2O[C@H](CO)[C@H](O)[C@H](O)[C@H]2O)cc1)[C@H]1O[C@@H](n2ccc(=O)[nH]c2=O)[C@H](O)[C@@H]1O 1.0

---

SI (CC50/IC50) tested on classical swine fever virus (CSFV): recorded values
observation-type: SI (CC50/IC50)

1) CC(=O)OC[C@H]1O[C@@H](Sc2ccc(NC(=O)[C@H]3O[C@@H](n4ccc(=O)[nH]c4=O)[C@@H]4OC(C)(C)O[C@@H]43)cc2)[C@H](OC(C)=O)[C@@H](OC(C)=O)[C@H]1OC(C)=O 1.6
2) CC(=O)OC[C@H]1O[C@@H](Sc2ccc(NC(=O)CCC(=O)OC[C@H]3O[C@@H](n4ccc(=O)[nH]c4=O)[C@H](O[Si](C)(C)C(C)(C)C)[C@@H]3O[Si](C)(C)C(C)(C)C)cc2)[C@H](OC(C)=O)[C@@H](OC(C)=O)[C@H]1OC(C)=O 29.5
3) CC(=O)OC[C@H]1O[C@@H](Sc2ccc(NC(=O)[C@H]3O[C@@H](n4ccc(=O)[nH]c4=O)[C@H](O[Si](C)(C)C(C)(C)C)[C@@H]3O[Si](C)(C)C(C)(C)C)cc2)[C@H](OC(C)=O)[C@@H](OC(C)=O)[C@H]1OC(C)=O 2.0
4) CC(=O)OC[C@H]1O[C@@H](Sc2ccc(NC(=O)CCC(=O)OC[C@H]3O[C@@H](n4ccc(=O)[nH]c4=O)[C@H](O[Si](C)(C)C(C)(C)C)[C@@H]3O[Si](C)(C)C(C)(C)C)cc2)[C@H](OC(C)=O)[C@@H](OC(C)=O)[C@@H]1OC(C)=O 9.3
5) O=C(Nc1ccc(S[C@@H]2O[C@H](CO)[C@@H](O)[C@H](O)[C@H]2O)cc1)[C@H]1O[C@@H](n2ccc(=O)[nH]c2=O)[C@H](O)[C@@H]1O 1.1
6) O=C(Nc1ccc(S[C@@H]2O[C@H](CO)[C@H](O)[C@H](O)[C@H]2O)cc1)[C@H]1O[C@@H](n2ccc(=O)[nH]c2=O)[C@H](O)[C@@H]1O 1.1
7) CC(=O)OC[C@H]1O[C@@H](Sc2ccc(NC(=O)CCC(=O)OC[C@H]3O[C@@H](n4ccc(=O)[nH]c4=O)[C@@H]4OC(C)(C)O[C@@H]43)cc2)[C@H](OC(C)=O)[C@@H](OC(C)=O)[C@@H]1OC(C)=O 1.1
8) CC(=O)OC[C@H]1O[C@@H](Sc2ccc(NC(=O)[C@H]3O[C@@H](n4ccc(=O)[nH]c4=O)[C@@H]4OC(C)(C)O[C@@H]43)cc2)[C@H](OC(C)=O)[C@@H](OC(C)=O)[C@@H]1OC(C)=O 2.2
